Origin of values: PubChem BioAssay AID2289

Listed here are compounds together with their documented Potency.
experiment: qHTS Assay for Modulators of miRNAs and/or Inhibitors of miR-21; conditions: HeLa miR-21-FLuc reporter, luciferase luminescence, 48 h; actives lower the signal
About 3,300 (0.97%) of roughly 340,000 compounds were called active. Inconclusive results (about 9%) are left out. Some of the results follow.

compound: CCn1nccc1C(=O)Nc1ccc(Cl)c(Cl)c1
Potency: 8.26 µM (active)

For Clc1ccc(OCc2noc(-c3ccsc3)n2)c(Cl)c1 , what is its reported Potency?
4.14 µM (active)

What value of Potency has been reported for the following compound? COc1ccc(-c2nc3n(c2C)Cc2ccccc2-3)cc1
6.56 µM (active)

Consider the compound shown here: COc1c2c(cc3oc(=O)ccc13)OC(C)(C)C=C2 What is its recorded Potency?
18.5 µM (active)

Which Potency is reported for this compound? CCC1CCCCN1CCCNC(=O)c1ccc2nc(N3CCC(C)CC3)sc2c1 (configuration not stated)
0.0656 µM (active)

What value of measured Potency is listed for CC1(C)C=Cc2cc3ccc(=O)oc3cc2O1 ?
13.1 µM (active)

Reported Potency, compound CCc1ccc(OCC(=O)N2CCc3ccccc32)cc1 : ____
4.65 µM (active)

Entry under review: CCNC(=S)/N=C(\N)Nc1nc(C)c2cc(C)ccc2n1 . Reported Potency?
5.85 µM (active)

# get_value(readout='Potency', item= O=C(COc1ccccc1Cl)N1CCc2ccccc21 )
2.07 µM (active)

----------
test: qHTS Assay for Modulators of miRNAs and/or Inhibitors of miR-21; conditions: HeLa miR-21-FLuc reporter, luciferase luminescence, 48 h; actives lower the signal; also: potency is read from the fitted curve at half-maximal effect; nearly all actives have a fitted effect of over 55% in size
In all, about 340,000 compounds went through this assay and about 3,300 (0.97%) were called active. About 9% were inconclusive and are not listed. This is one part of the list.
property label: Potency

// solved cases for Potency follow
query smiles: N/C(=N\OC(=O)c1cccc2ccccc12)c1ccncc1
endpoint value: 16.5 µM (active)
--
query smiles: CCn1c(-c2ccc(F)cc2)cnc1SCC(=O)N1CCc2ccccc21
endpoint value: 11.7 µM (active)
--
query smiles: Cc1ccnc(SCC(=O)N2CCc3ccccc32)n1
endpoint value: 7.36 µM (active)
--
query smiles: O=C(CSc1ncccc1-c1nc2ccccc2[nH]1)N1CCc2ccccc21
endpoint value: 5.21 µM (active)
--
query smiles: CNc1cccc2c1C(=O)c1ccccc1C2=O
endpoint value: 11.7 µM (active)
--
query smiles: O=C(Cc1ccc(Cl)cc1)c1ccc(O)cc1
endpoint value: 5.21 µM (active)

Read the next record carefully.
Can you look up the measured Potency of CN(C)c1ccc(/C=C(\C#N)c2nc3ccccc3c(=O)[nH]2)cc1 for me?
0.131 µM (active)

----------
experiment: qHTS Assay for Modulators of miRNAs and/or Inhibitors of miR-21; details: HeLa miR-21-FLuc reporter, luciferase luminescence, 48 h; actives lower the signal; also: potency is read from the fitted curve at half-maximal effect; nearly all actives have a fitted effect of over 55% in size
Out of some 340,000 compounds screened, about 3,300 (0.97%) were called active. Inconclusive results (about 9%) are left out. Some of the results follow.
property label: Potency

Solved entries (count: 5):
compound: CC(NC(=O)c1sc2ccccc2c1Cl)C1CCCO1 (stereo unspecified)
Potency: 5.21 µM (active)
//
compound: CCOC(=O)c1cccc(COC(=O)c2cccc(-c3nnc(-c4ccccc4)o3)c2)c1
Potency: 5.85 µM (active)
//
compound: COc1ccc(-c2noc(-c3cc(C(C)C)[nH]n3)n2)cc1
Potency: 3.29 µM (active)
//
compound: O=C(NNC(=S)Nc1ccccc1Cl)c1ccccc1Br
Potency: 0.927 µM (active)
//
compound: O=C(NCC1CCCO1)c1sc2ccccc2c1Cl (stereo unspecified)
Potency: 3.29 µM (active)

# next compound below
Fill in the blank: the reported Potency of CCCc1cc(C(=O)NNC(=S)Nc2cccc(C)c2)cs1 is ____.
3.69 µM (active)

----------
test: qHTS Assay for Modulators of miRNAs and/or Inhibitors of miR-21; settings: HeLa miR-21-FLuc reporter, luciferase luminescence, 48 h; actives lower the signal; also: potency is read from the fitted curve at half-maximal effect; nearly all actives have a fitted effect of over 55% in size
Out of some 340,000 compounds screened, about 3,300 (0.97%) were called active. Another 9% or so got no clear call; they are omitted. Some of the results follow.
Quick list: Potency per entry.

// known answers, use as guide
compound: COc1cccc(C(=O)NCCn2ccc3ccccc32)c1
Potency: 5.21 µM (active)
--
compound: C=C(C)CSc1nncn1/N=C/c1ccc(OC)cc1
Potency: 11.7 µM (active)
--
compound: O=C(CC1NCCc2ccccc21)Nc1cccc(Cl)c1 (stereo not given)
Potency: 16.5 µM (active)
--
compound: COc1ccc(/C(N)=N/OC(=O)CSc2ccccc2)cc1OC
Potency: 8.26 µM (active)
--
compound: CCOC(=O)c1sc(Nc2ccccc2)nc1C
Potency: 4.14 µM (active)
--
compound: Cc1csc2ncc(C(=O)NCCc3ccccc3)c(=O)n12
Potency: 16.5 µM (active)
--
compound: Nc1ccc(-c2nc3ccccc3s2)cn1
Potency: 1.47 µM (active)
--
compound: Cc1ccc2oc(C(=O)Nc3nonc3C)c(C)c2c1
Potency: 4.65 µM (active)

So what's the measured Potency for this one? Cc1ccc(NC(=O)CCCNC(=O)c2ccc(Cl)cc2)c(O)c1
16.5 µM (active)

Which Potency value belongs to C/C(=N\Nc1cccc(C(=O)O)c1)c1ccc(Cl)s1 ?
6.56 µM (active)

So what does the record say about Potency for CS(=O)(=O)N1N=C(c2ccc(Br)cc2)CC1c1ccc2c(c1)OCO2 (stereo not given) ?
0.927 µM (active)

What does the record list as Potency for O=C(CCc1ccc(S(=O)(=O)NC2CCCCC2)cc1)NCc1ccccn1 ?
7.36 µM (active)

// lookup Potency for COC(=O)c1sc(NC(=O)CSc2nnnn2C)nc1C
6.56 µM (active)

Please report the recorded Potency for Cc1cc2oc(C(=O)Nc3nonc3C)c(C)c2cc1C .
0.656 µM (active)

// lookup Potency for Cc1cc(C)n2ncc(/C(N)=N/OC(=O)c3ccccc3F)c2n1
1.85 µM (active)

Look up Potency: Cc1cc2c([nH]c3ccccc32)c2c1OC(C)(C)C=C2
3.69 µM (active)

Potency for COc1ccccc1OCC(=O)Nc1ccc2c(c1)OCO2 ?
18.5 µM (active)

Fill in the blank: the reported Potency of c1ccc(-c2nnc(-c3ccccc3)o2)cc1 is ____.
1.31 µM (active)

What does the record list as Potency for CS(=O)(=O)Nc1ccc(C2=NN(S(C)(=O)=O)C(c3ccc4c(c3)OCO4)C2)cc1 (stereo not given) ?
4.65 µM (active)

So what does the record say about Potency for CC(=O)N1N=C(c2ccc(C)cc2)CC1c1ccc2c(c1)OCO2 (stereo not given) ?
7.36 µM (active)

So what does the record say about Potency for Cc1ccc2c(c1)OC(c1ccc3c(c1)OCCO3)CC2=O (stereo not given) ?
16.5 µM (active)

Tell me the measured Potency of O=C(COc1ccccc1F)Nc1ccc2c(c1)OCCO2 , please.
1.17 µM (active)

Bench note: what Potency did O=C(Nc1nnc(S(=O)(=O)N2CCCC2)s1)c1ccc(F)cc1 show?
3.69 µM (active)

Which Potency reading was recorded for the compound COc1ccc(/C(C)=N/Nc2cccc(C(=O)O)c2)cc1OC ?
10.4 µM (active)

Value lookup for Potency; key = COc1cccc(/C=N/NC(=O)NC2CCCCC2)c1O
4.14 µM (active)

Endpoint output: Potency of CC(=O)Nc1cccc(C(=O)N/N=C/c2ccccc2F)c1 . Value?
2.07 µM (active)

So what does the record say about Potency for O=C(NC(=S)Nc1ccc2c(c1)OCCO2)c1cccc(Br)c1 ?
3.69 µM (active)

What does the data say about its Potency? Entry: CCOC(=O)c1sc(NC(=O)c2ccccc2OC)nc1C
0.261 µM (active)

Given the compound O=C1CC(c2ccc3c(c2)OCCO3)Oc2ccccc21 (stereo not given) , what is its reported Potency?
14.7 µM (active)

Need Potency of Nc1ccccc1-c1nc2ccccc2s1 , thanks.
5.85 µM (active)

----------
assay: qHTS Assay for Modulators of miRNAs and/or Inhibitors of miR-21; settings: HeLa miR-21-FLuc reporter, luciferase luminescence, 48 h; actives lower the signal; also: potency is read from the fitted curve at half-maximal effect; nearly all actives have a fitted effect of over 55% in size
About 3,300 (0.97%) of roughly 340,000 compounds were called active. About 9% were inconclusive and are not listed. This is one part of the list.
property label: Potency

compound: Clc1ccc(-c2nsc(N3CCOCC3)n2)c(Cl)c1
property label: Potency
endpoint value: 1.04 µM (active)
//
compound: Clc1ccc2oc(-c3ccccc3)cc(=NCCCN3CCOCC3)c2c1
property label: Potency
endpoint value: 4.14 µM (active)
//
compound: Cn1c(NC(=O)c2cccc(Cn3cc(Cl)cn3)c2)nc2ccccc21
property label: Potency
endpoint value: 4.65 µM (active)

Record request: Potency value, item CCCNC(=O)/C=C/c1ccc(C(C)C)cc1
16.5 µM (active)
